From: patent US10519152B2

For each of the compounds below, state its DC50.
target: Estrogen Receptor (ERα) in MCF-7 human ductal carcinoma breast cell line (Homo sapiens, UniProt P03372); construct: endogenous in cells; host or cells: MCF-7; assay: MCF-7 ER degradation assay (cell based immuno-fluorescence); conditions: MCF-7 cells, 18-22 hours incubation, 50% reduction of ERα expression; single experiment or average of two or more; read-out: MCF-7 ER degradation IC50
Sequence (P03372 whole entry): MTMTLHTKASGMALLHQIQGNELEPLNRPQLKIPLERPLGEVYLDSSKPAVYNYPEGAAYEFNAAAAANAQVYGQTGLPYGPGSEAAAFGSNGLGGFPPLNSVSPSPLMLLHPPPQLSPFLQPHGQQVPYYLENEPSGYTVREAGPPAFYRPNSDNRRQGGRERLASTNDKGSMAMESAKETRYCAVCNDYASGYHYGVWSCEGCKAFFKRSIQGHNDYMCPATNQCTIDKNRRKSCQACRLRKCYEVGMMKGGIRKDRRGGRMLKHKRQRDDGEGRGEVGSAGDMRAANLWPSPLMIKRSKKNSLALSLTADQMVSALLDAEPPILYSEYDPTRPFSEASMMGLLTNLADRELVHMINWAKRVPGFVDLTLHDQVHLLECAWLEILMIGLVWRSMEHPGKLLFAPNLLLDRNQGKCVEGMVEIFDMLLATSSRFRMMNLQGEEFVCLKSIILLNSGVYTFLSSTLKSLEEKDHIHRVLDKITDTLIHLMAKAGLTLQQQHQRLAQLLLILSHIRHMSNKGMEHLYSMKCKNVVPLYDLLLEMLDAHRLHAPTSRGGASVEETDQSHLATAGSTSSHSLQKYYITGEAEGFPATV
One number for each entry, in nM.

Some solved cases for reference:
[[record]]
smiles_record = "Cc1ncsc1-c1ccc(CNC(=O)[C@@H]2C[C@@H](O)CN2C(=O)[C@@H](NC(=O)CCCOc2ccc(COc3cc(F)c([C@@H]4c5[nH]c6ccccc6c5C[C@@H](C)N4CC(C)(C)F)c(F)c3)nc2)C(C)(C)C)cc1"
value_units = "nM"
value_reported = 1.2

[[record]]
smiles_record = "Cc1ncsc1-c1ccc(CNC(=O)[C@@H]2C[C@@H](O)CN2C(=O)[C@@H](NC(=O)COCCOc2ccc(COc3cc(F)c([C@@H]4c5[nH]c6ccccc6c5C[C@@H](C)N4CC(C)(C)F)c(F)c3)cc2)C(C)(C)C)cc1"
value_units = "nM"
value_reported = 2.6

[[record]]
smiles_record = "Cc1ncsc1-c1ccc([C@H](C)NC(=O)[C@@H]2C[C@@H](O)CN2C(=O)[C@@H](NC(=O)CCOCCCCCCCOc2cc(F)c([C@@H]3c4[nH]c5ccccc5c4C[C@@H](C)N3CC(C)(C)F)c(F)c2)C(C)(C)C)cc1"
value_units = "nM"
value_reported = 3.6


Challenge: Could you tell me which DC50 is on file for `Cc1ncsc1-c1ccc(CNC(=O)[C@@H]2C[C@@H](O)CN2C(=O)[C@@H](NC(=O)COCCOCCC(F)(F)CCOc2cc(F)c([C@@H]3c4[nH]c5ccccc5c4C[C@@H](C)N3CC(C)(C)F)c(F)c2)C(C)(C)C)cc1` ?
Response given: 0.8

* * *

biological target: Estrogen Receptor (ERα) in MCF-7 human ductal carcinoma breast cell line (Homo sapiens, UniProt P03372); construct: endogenous in cells; host or cells: MCF-7; experiment: MCF-7 ER degradation assay (cell based immuno-fluorescence); settings: MCF-7 cells, 18-22 hours incubation, 50% reduction of ERα expression; single experiment or average of two or more; read-out: MCF-7 ER degradation IC50
QUANTITY NAME: DC50 (nM)
One number for each entry, in nM.

Some solved cases for reference:
[[record]]
smiles_record = "Cc1ncsc1-c1ccc(CNC(=O)[C@@H]2C[C@@H](O)CN2C(=O)[C@@H](NC(=O)CCCCN(C)CCN(C)CCOc2cc(F)c([C@@H]3c4[nH]c5ccccc5c4C[C@@H](C)N3CC(C)(C)F)c(F)c2)C(C)(C)C)cc1"
value_units = "nM"
value_reported = 1.1

[[record]]
smiles_record = "Cc1ncsc1-c1ccc(CNC(=O)[C@@H]2C[C@@H](O)CN2C(=O)[C@@H](NC(=O)CCCOc2cccc(COc3cc(F)c([C@@H]4c5[nH]c6ccccc6c5C[C@@H](C)N4CC(C)(C)F)c(F)c3)n2)C(C)(C)C)cc1"
value_units = "nM"
value_reported = 1.8

[[record]]
smiles_record = "Cc1ncsc1-c1ccc(CNC(=O)[C@@H]2C[C@@H](O)CN2C(=O)[C@@H](NC(=O)COC2CCN(CCCNC(=O)/C=C/c3cc(F)c([C@@H]4c5[nH]c6ccccc6c5C[C@@H](C)N4CC(C)(C)F)c(F)c3)CC2)C(C)(C)C)cc1"
value_units = "nM"
value_reported = 4.5

[[record]]
smiles_record = "Cc1ncsc1-c1ccc(CNC(=O)[C@@H]2C[C@@H](O)CN2C(=O)[C@@H](NC(=O)COCC(F)(F)COCCCOc2cc(F)c([C@@H]3c4[nH]c5ccccc5c4C[C@@H](C)N3CC(C)(C)F)c(F)c2)C(C)(C)C)cc1"
value_units = "nM"
value_reported = 0.7

[[record]]
smiles_record = "Cc1ncsc1-c1ccc(CNC(=O)[C@@H]2C[C@@H](O)CN2C(=O)[C@@H](NC(=O)COCCCCCNCCOc2cc(F)c([C@@H]3c4[nH]c5ccccc5c4C[C@@H](C)N3CC(C)(C)F)c(F)c2)C(C)(C)C)cc1"
value_units = "nM"
value_reported = 1.8

[[record]]
smiles_record = "Cc1ncsc1-c1ccc(CNC(=O)[C@@H]2C[C@@H](O)CN2C(=O)[C@@H](NC(=O)CCCCCOCCCCOc2cc(F)c([C@@H]3c4[nH]c5ccccc5c4C[C@@H](C)N3CC(C)(C)F)c(F)c2)C(C)(C)C)cc1"
value_units = "nM"
value_reported = 1

[[record]]
smiles_record = "Cc1ncsc1-c1ccc(CNC(=O)[C@@H]2C[C@@H](O)CN2C(=O)[C@@H](NC(=O)COCCCCCOc2cc(F)c([C@@H]3c4[nH]c5ccccc5c4C[C@@H](C)N3CC(F)(F)CO)c(F)c2)C(C)(C)C)cc1"
value_units = "nM"
value_reported = 0.9


--- query ---
Challenge: Could you tell me which DC50 is on file for `Cc1ncsc1-c1ccc(CNC(=O)[C@@H]2C[C@@H](O)CN2C(=O)[C@@H](NC(=O)COCc2ccc(COc3cc(F)c([C@@H]4c5[nH]c6ccccc6c5C[C@@H](C)N4CC(C)(C)F)c(F)c3)cc2)C(C)(C)C)cc1` ?
Response given: 3.2

* * *

molecular target: Estrogen Receptor (ERα) in MCF-7 human ductal carcinoma breast cell line (Homo sapiens, UniProt P03372); construct: endogenous in cells; host or cells: MCF-7; experiment: MCF-7 ER degradation assay (cell based immuno-fluorescence); details: MCF-7 cells, 18-22 hours incubation, 50% reduction of ERα expression; single experiment or average of two or more; read-out: MCF-7 ER degradation IC50
QUANTITY NAME: DC50 (nM)
One number for each entry, in nM.

[[record]]
smiles_record = "Cc1ncsc1-c1ccc(CNC(=O)[C@@H]2C[C@@H](O)CN2C(=O)[C@@H](NC(=O)CCCCCCNC(=O)/C=C/c2cc(F)c([C@@H]3c4[nH]c5ccccc5c4C[C@@H](C)N3CC(C)(C)F)c(F)c2)C(C)(C)C)cc1"
value_units = "nM"
value_reported = 0.8


Challenge: Could you tell me which DC50 is on file for `Cc1ncsc1-c1ccc(CNC(=O)[C@@H]2C[C@@H](O)CN2C(=O)[C@@H](NC(=O)CCCCCCOCCCOc2cc(F)c([C@@H]3c4[nH]c5ccccc5c4C[C@@H](C)N3CC(C)(C)F)c(F)c2)C(C)(C)C)cc1` ?
Response given: 1.7

* * *

Target: Estrogen Receptor (ERα) in MCF-7 human ductal carcinoma breast cell line (Homo sapiens)
Construct: endogenous in cells; host or cells: MCF-7
Experiment: MCF-7 ER degradation assay (cell based immuno-fluorescence)
Settings: MCF-7 cells, 18-22 hours incubation, 50% reduction of ERα expression; single experiment or average of two or more; read-out: MCF-7 ER degradation IC50
Procedure: MCF-7 ER Degradation Assay The ability of compounds to down-regulate Estrogen Receptor (ER) numbers was assessed in a cell based immuno-fluorescence assay using the MCF-7 human ductal carcinoma breast cell line. […] Cells were syringed once using a sterile 18 G×1.5 inch (1.2×40 mm) broad gauge needle and cell density was measured using a Coulter Counter (Beckman). […]
Structures can show the parent of a compound that is named as a salt.
Please note: DC50 exactly at 0.7 nM is Condition not met. Only values below 0.7 nM get Condition met.

[[record]]
molecule = "Cc1ncsc1-c1ccc(CNC(=O)[C@@H]2C[C@@H](O)CN2C(=O)[C@@H](NC(=O)COCCCCC(=O)NCCOc2cc(F)c([C@@H]3c4[nH]c5ccccc5c4C[C@@H](C)N3CC(C)(C)F)c(F)c2)C(C)(C)C)cc1"
label = "Condition met"


Challenge: Bench note: check whether `Cc1ncsc1-c1ccc(CNC(=O)[C@@H]2C[C@@H](O)CN2C(=O)[C@@H](NC(=O)CCCOCCCCCCOc2cc(F)c([C@@H]3c4[nH]c5ccccc5c4C[C@@H](C)N3CC(C)(C)F)c(F)c2)C(C)(C)C)cc1` shows DC50 below 0.7 nM
Response given: Condition not met

Challenge: Bench note: check whether `Cc1ncsc1-c1ccc([C@H](C)NC(=O)[C@@H]2C[C@@H](O)CN2C(=O)[C@@H](NC(=O)COCCOCCOCCOc2cc(F)c([C@@H]3c4[nH]c5ccccc5c4C[C@@H](C)N3CC(C)(C)F)c(F)c2)C(C)(C)C)cc1` shows DC50 below 0.7 nM
Response given: Condition met

Challenge: Bench note: check whether Cc1ncsc1-c1ccc(CNC(=O)[C@@H]2C[C@@H](OC(=O)[C@H](C)NC(=O)[C@@H](N)C(C)C)CN2C(=O)[C@@H](NC(=O)COCCOCCOCCOc2cc(F)c([C@@H]3c4[nH]c5ccccc5c4C[C@@H](C)N3CC(C)(C)F)c(F)c2)C(C)(C)C)cc1 [Example 100, Formate] shows DC50 below 0.7 nM
Response given: Condition met

Challenge: Bench note: check whether `Cc1ncsc1-c1ccc(CNC(=O)[C@@H]2C[C@@H](O)CN2C(=O)[C@@H](NC(=O)C2(OCCCCCCOc3cc(F)c([C@@H]4c5[nH]c6ccccc6c5C[C@@H](C)N4CC(C)(C)F)c(F)c3)CC2)C(C)(C)C)cc1` shows DC50 below 0.7 nM
Response given: Condition not met

Challenge: Bench note: check whether `Cc1ncsc1-c1ccc(CNC(=O)[C@@H]2C[C@@H](O)CN2C(=O)[C@@H](NC(=O)COCc2cccnc2COc2cc(F)c([C@@H]3c4[nH]c5ccccc5c4C[C@@H](C)N3CC(C)(C)F)c(F)c2)C(C)(C)C)cc1` shows DC50 below 0.7 nM
Response given: Condition not met

Challenge: Bench note: check whether `Cc1ncsc1-c1ccc([C@H](C)NC(=O)[C@@H]2C[C@@H](O)CN2C(=O)[C@@H](NC(=O)COCCCOCCCCCOc2cc(F)c([C@@H]3c4[nH]c5ccccc5c4C[C@@H](C)N3CC(C)(C)F)c(F)c2)C(C)(C)C)cc1` shows DC50 below 0.7 nM
Response given: Condition not met

Challenge: Bench note: check whether `Cc1ncsc1-c1ccc(CNC(=O)[C@@H]2C[C@@H](O)CN2C(=O)[C@@H](NC(=O)COCCCOCCCCOc2cc(F)c([C@@H]3c4[nH]c5ccccc5c4C[C@@H](C)N3CC(C)(C)F)c(F)c2)C(C)(C)C)cc1` shows DC50 below 0.7 nM
Response given: Condition not met

Challenge: Bench note: check whether `Cc1ncsc1-c1ccc(CNC(=O)[C@@H]2C[C@@H](O)CN2C(=O)[C@@H](NC(=O)COCCCCC(=O)N(C)CCOc2cc(F)c([C@@H]3c4[nH]c5ccccc5c4C[C@@H](C)N3CC(C)(C)F)c(F)c2)C(C)(C)C)cc1` shows DC50 below 0.7 nM
Response given: Condition met

Challenge: Bench note: check whether `Cc1ncsc1-c1ccc(CNC(=O)[C@@H]2C[C@@H](O)CN2C(=O)[C@@H](NC(=O)COCCCCOc2cc(F)c([C@@H]3c4[nH]c5ccccc5c4C[C@@H](C)N3CC(C)(C)F)c(F)c2)C(C)(C)C)cc1` shows DC50 below 0.7 nM
Response given: Condition not met

Challenge: Bench note: check whether `Cc1ncsc1-c1ccc(CNC(=O)[C@@H]2C[C@@H](O)CN2C(=O)[C@@H](NC(=O)CCN2CCN(CCCCOc3cc(F)c([C@@H]4c5[nH]c6ccccc6c5C[C@@H](C)N4CC(C)(C)F)c(F)c3)CC2)C(C)(C)C)cc1` shows DC50 below 0.7 nM
Response given: Condition met

Challenge: Bench note: check whether `Cc1ncsc1-c1ccc(CNC(=O)[C@@H]2C[C@@H](O)CN2C(=O)[C@@H](NC(=O)COCCOCCCCCOc2cnc([C@@H]3c4[nH]c5ccccc5c4C[C@@H](C)N3CC(C)(F)F)c(F)c2)C(C)(C)C)cc1` shows DC50 below 0.7 nM
Response given: Condition not met

Challenge: Bench note: check whether `Cc1ncsc1-c1ccc(CNC(=O)[C@@H]2C[C@@H](O)CN2C(=O)[C@@H](NC(=O)COCCO[C@@H](C)[C@H](C)OCCOc2cc(F)c([C@@H]3c4[nH]c5ccccc5c4C[C@@H](C)N3CC(C)(C)F)c(F)c2)C(C)(C)C)cc1` shows DC50 below 0.7 nM
Response given: Condition met

Challenge: Bench note: check whether `Cc1ncsc1-c1ccc(CNC(=O)[C@@H]2C[C@@H](O)CN2C(=O)[C@@H](NC(=O)CCCNCCCCCCOc2cc(F)c([C@@H]3c4[nH]c5ccccc5c4C[C@@H](C)N3CC(C)(C)F)c(F)c2)C(C)(C)C)cc1` shows DC50 below 0.7 nM
Response given: Condition not met
